Exercise: state measured melting point for each of the molecules provided.

Item C#Cc1cc2c(cc1Cl)C=C(C(=O)O)C(C(F)(F)F)O2 (stereo not given) has what recorded melting point? > 300 °C

And for `CNc1ccc(C#CCCN2CC=C(c3ccccc3)CC2)nc1` ? 164 to 166 °C

And for `CCOC(Nc1ccccc1)(OCC)c1ccnc(C(=O)c2ccc(Cl)c(Cl)c2)c1` ? 113 to 114 °C

And for CNc1nc(Cl)nc2c1ncn2C1SC(CO)C(O)C1O (stereo not given) ? 220 to 222 °C

And for CC(C)N1CCN(C(=O)OC2C3=C(SCCS3)C(=O)N2c2ccc(Cl)cn2)CC1 (stereo not given) ? 130 to 135 °C

And for `CCN(CC)c1ccc(NC(=O)N(C[C@H]2CC[C@H](CN(C(=O)Nc3ccc(N(CC)CC)cc3)C3CCCCC3)CC2)C2CCCCC2)cc1` ? 212 to 217 °C

And for `C=C(C)CNC(=O)N1CC(Oc2ccc(C(F)(F)F)cc2)C1` ? 101 to 102 °C

And for `COc1cc(-c2c(-c3ccncc3)c(-c3ccc(F)cc3)nn2CCO)ccn1` ? 168 to 169 °C

And for CC(Oc1cccc(Cl)c1)c1ccnc2ncnn12 (stereo not given) ? 124 to 126 °C

And for `CCCCCCC(=O)Nc1ncnc(NC2CC2)n1` ? 195 to 197 °C

###

Readout: melting point

Item `CS(=O)(=O)c1c(C(=O)NN=Cc2ccc3ccccc3c2)[nH]c2ccccc12` has what recorded melting point? > 250 °C

And for `O=C(NC(=O)N1CCOCC1)c1cccc(-c2noc(-c3ccccc3F)n2)c1` ? 190 to 194 °C

And for `CCCCCCCCCCOc1cc(OCCCOc2ccc(O)cc2)cc(C(=O)O)c1` ? 106 to 109 °C

And for `FC(F)(F)c1cccnc1N1CCN(c2nc3ccc(Cl)cc3[nH]2)CC1` ? 228 to 231 °C

And for `CC(C)(C)OC(=O)NCC1(C(=O)O)CC1` ? 104 to 106 °C

And for `COc1ccccc1-n1c(=O)[nH]c2cccnc21` ? 130 °C

And for CCOC(=O)C1=Cc2cc(Cl)cc(-c3nc4ccccc4[nH]3)c2OC1C(F)(F)F (stereo not given) ? > 300 °C

And for `CC(C)(C)OC(=O)NCCn1cnc2c(N)nc3ccccc3c21` ? 215 °C

And for `COC=C(C(=O)OC)c1scnc1COc1ccccc1` ? 133 °C

And for `Cc1cccc2[nH]c3cc(O)ccc3c12` ? 191 °C

###

Exercise: state measured melting point for each of the compounds provided.

Item COC1=CC23CCN(C=O)C(Cc4cccc(OC)c42)C3CC1 (stereo not given) has what recorded melting point? 169 to 172 °C

And for O=C(O)CCc1cc(C(c2cc(F)ccc2F)S(=O)(=O)c2ccc(C(F)(F)F)cc2)c(Cl)cn1 (stereo not given) ? 166 to 167 °C

And for `COC(=O)c1ccc(C(=O)O)c(NC(=O)C(F)(F)F)c1` ? 185 to 186 °C

And for `CCOC(=O)n1c(=O)[nH]c2cc(OC)ccc21` ? 180 to 183 °C

And for `COC(=O)[C@H]1CC[C@@H](c2c(-c3ccccc3)n(C)c3ccccc32)CC1` ? 141 to 142 °C

###

Readout: melting point

Item `COc1cc(-c2nc(N)sc2CSC2CCCCC2)c(OC)cc1C` has what recorded melting point? 143 to 144 °C

And for `CCOc1cc2c(O)c(Br)cnc2nc1C` ? 266 to 267 °C

And for `Cc1cc(-c2cc(C(F)(F)F)n3cnc(-c4ccncc4)c3n2)ccc1Cl` ? 254 °C

And for `CSc1nc(-c2cc(C(C)(C)C)c(O)c(C(C)(C)C)c2)c(-c2ccccc2)[nH]1` ? 129 to 131 °C

And for `CC(C)(C)CC(=O)N[C@H]1CC[C@H](CCN2CCC(c3cccc4c3CCO4)CC2)CC1` ? 193 °C

And for `Cc1nn(C)c(-c2ccccc2)c1NC1=NCCN1` ? 232 to 234 °C

And for O=C1CCC(N2Cc3cc(CNC(=O)Nc4cccc(Oc5ccccn5)c4)ccc3C2=O)C(=O)N1 (stereo not given) ? 298 to 300 °C

And for COc1ccc(C2(C#N)CCC(=NO)CC2)cc1OCC1CC1 (stereo not given) ? 75 to 77 °C

And for `CCOC(=O)c1ccc(-c2nc(COc3ccc(COc4nn(-c5ccccc5)cc4/C=C/P(=O)(OCC)OCC)cc3OC)c(C)o2)o1` ? 129 to 130 °C

And for Cn1ncc2c1CS(=O)c1cn[nH]c1-2 (stereo not given) ? > 270 °C

###

Exercise: state measured melting point for each of the molecules provided.

Item `Nc1ccc2nc(-c3cccnc3)nn2c1` has what recorded melting point? 230 °C

And for CN(C)C(=O)CC(c1ccc(OC(F)F)c(OCC2CC2)c1)N1Cc2cccc(N)c2C1=O (stereo not given) ? 70 to 72 °C

And for `COc1ccc(OC(=O)CN2CCN(Cc3cc(OC)c(OC)c(OC)c3)CC2)cc1` ? 94 to 97 °C

And for `Cn1c(COc2ccc(C=C3SC(=O)NC3=O)cc2)nc2ccc(Sc3cc(C(C)(C)C)c(O)c(C(C)(C)C)c3)cc21` ? 247 to 249 °C

And for `Cc1[nH]c(=S)n(Nc2cccc(Cl)c2)c1C(=O)O` ? 166 to 168 °C

And for CC(C)(O)CC(O)c1cccc(OCc2ccc3ccccc3n2)c1 (stereo not given) ? 117 to 124 °C

And for C=C1C(O)C(CO)OC1n1cc(C)c(=O)[nH]c1=O (stereo not given) ? 161 to 162 °C

And for `Oc1ccc2nc(SCCC=C(F)F)oc2c1` ? 73.6 to 75.4 °C

And for `CCS(=O)(=O)CCc1ccc(C(=O)c2ccc(Cl)cc2)cc1` ? 117 to 118 °C

And for `CN1C[C@@H]2C[C@H]1CN2C(=O)N1CCC(c2[nH]nc3c2C(=O)c2c(NC(=O)NN4CCOCC4)cccc2-3)CC1` ? 224 to 225 °C

###

Exercise: state measured melting point for each of the compounds provided.

Item `O=[N+]([O-])c1cnn(-c2c(Cl)cc(C(F)(F)F)c(Cl)c2Cl)c1Br` has what recorded melting point? 97 to 99 °C

And for `O=C(O)CSSc1ccc([N+](=O)[O-])cc1C(Cl)(Cl)Cl` ? 140 °C

And for `O=C(O)CCc1c(Cl)cccc1-c1cccs1` ? 83 to 86 °C

And for `S=c1nc(-c2cccnc2Cl)[nH]n1Cc1ccccc1` ? 155 to 156 °C

And for `CCCS(=O)(=O)Oc1ccc(-c2nc3cc4c(cc3[nH]2)C(C)(C)CC(=O)N4)cc1` ? 148 to 156 °C

And for `O=C(Nc1ccccn1)Nc1cnns1` ? 227 °C

And for `COc1ccc(C2=Nc3ccc(N4CCCC4)cc3C(=O)C2)cc1` ? 312 to 313 °C

And for `CCc1ccc(O)c(C(=NO)c2ccc(Cl)cc2)c1` ? 117 °C

And for `Cc1c(-c2ccncc2)nc2n(c1=O)CCCN2` ? 242 to 243 °C

And for COc1ccc(C2=NN(C3CCCC3)C(=O)[C@H]3CC=CC[C@@H]23)cc1OC1CCCC1 (relative stereo) ? 144 to 145 °C

###

Readout: melting point

Item `CC(C)CNc1nc(-c2ccccc2)c(Br)n2ccnc12` has what recorded melting point? 138 °C

And for `CN(CCOc1ccccc1C(N)=O)CCc1ccc([N+](=O)[O-])cc1` ? 116 to 118 °C

And for `Cc1noc(NC(=O)N2CCN(c3cc(-c4ccccc4F)ncn3)CC2)c1C` ? 189 to 190 °C

And for `N#Cc1ccc(Nc2nnc(Cc3ccncc3)c3ccccc23)cc1` ? 228 to 230 °C

And for `COc1cccc2c1nc(C(F)F)n2-c1nc(Nc2ccc(NS(C)(=O)=O)nc2)nc(N2CCOCC2)n1` ? 302 to 306 °C

And for O=c1[nH]c2ccccc2c2c(C(O)CC3CCCCC3)n(-c3ccccc3)nc12 (stereo not given) ? 254 to 259 °C

And for `CC1(C)CCC(C)(C)c2cc(-c3cc(-c4ccc(C(=O)O)c(O)c4)ccc3-c3ccccc3)ccc21` ? 134 to 136 °C

And for CCCCCCCCCCCCCCCCCCOC(=O)N(C)CC(O)C(O)C(O)C(O)CO (stereo not given) ? 85 °C

And for `COP(=O)(OC)c1ccc(-c2coc3ccc(-c4nnc(C)o4)cc23)cc1` ? 168 to 169 °C

And for `CCn1cc(C(=O)O)c(=O)c2cc(F)c(N3CC(C)(NC(=O)C(F)(F)F)C3)c(F)c21` ? 196 to 210 °C

And for `CON=C1CN(c2c(F)cc3c(=O)c(C(=O)O)cn(C4CC4)c3c2F)CC12CN(C(=O)OC(C)(C)C)C2` ? 255 to 256 °C

And for CCCCCCCC(O)C(C)(C)C(=O)O (stereo not given) ? 39 to 41 °C

And for C1=CC2(C3OCCO3)OC1c1ccccc12 (stereo not given) ? 48 to 49 °C

And for Cn1c(-c2ccc3ccccc3c2)nnc1S(C)=O (stereo not given) ? 224 to 226 °C

And for `CON=C(C(=O)OC)c1cccc(OC)c1` ? 66 to 68 °C

And for `CCNC(=N)NC(=O)c1c(-c2ccccc2)noc1C` ? 215 °C

And for `COC(=O)c1cc(OC(C)=O)c2cc(Br)ccc2c1C` ? 78 °C

And for `Fc1ccccc1-c1nnc(-c2ccccc2C(F)(F)F)o1` ? 68 to 69 °C

And for `O=C(NCN1CCCCC1)Nc1ccc(-c2cnc(CSCCOc3ccccc3)o2)cc1` ? 84 to 87 °C

And for Cc1ccccc1OCC(O)CNCCCOc1ccccc1 (stereo not given) ? 73 to 74 °C

And for `CCOCc1cc2ccccc2oc1=Nc1ccc(Cl)cc1` ? 84 to 86 °C

And for `COCCCn1nnnc1-c1cc(-c2cccc(C(F)(F)F)c2)c(O)cc1O` ? 144 to 182 °C

And for `CCCCCCCCNC(=O)N(C)C[C@H](O)[C@@H](O)[C@H](O)[C@H](O)CO` ? 111 °C

And for `CCc1ccc2[nH]c3c(=O)n(CCN(C)C)c4ccccc4c3c2c1` ? 266 to 268 °C

And for COc1ccc(CC2SC(=O)NC2=O)c2c1N(Cc1ccc(NC(=O)c3ccc4ccccc4c3)cc1)C(=O)CC2 (stereo not given) ? 202 to 208 °C

And for `CCn1c(=O)c2[nH]c(/C=C/c3cccc(Br)c3)nc2n(CC)c1=O` ? > 270 °C

And for COc1ccc(C2=NN(CCCCN3C(=O)c4ccccc4C3=O)C(=O)[C@H]3CC=CC[C@@H]23)cc1OC (relative stereo) ? 139 to 140 °C

And for CCOC(=O)C(=O)C(C#N)Cc1ccccc1 (stereo not given) ? 80 to 83 °C

And for `O=C(O)CCc1cnoc1-c1ccc2c(c1)OCO2` ? 150 to 151 °C

And for `COC(=O)c1cccc(S(=O)(=O)Cc2c(O)ccc3c2CCCC3=O)c1` ? 230 to 232 °C

And for `N#Cc1cc(F)ccc1Oc1ccc(-c2cn(C3CCOCC3)c3ncnc(N)c23)cc1` ? 216 to 217 °C

And for `COc1ccc2c(c1)c(Cc1nc(-c3ccc(F)cc3F)cs1)c(C)n2C(=O)c1ccc(Cl)cc1` ? 134 to 136 °C

And for `CSCCOc1cc(N)c(Cl)cc1C(=O)O` ? 138 to 140 °C

And for `CC(=O)Nc1cccc(-c2ccnc3c(C(=O)c4cccs4)cnn23)c1` ? 245 to 247 °C

And for O=C1NC(=O)C(c2ccsc2)O1 (stereo not given) ? 133 to 135 °C

And for O=C(O)CCC(O)c1ccc(-c2ccc(Cl)cc2)o1 (stereo not given) ? 100 to 101 °C

And for `Cc1nc(NC(=O)NC(C)(C)C)ccc1-c1ccncc1` ? 297 to 300 °C

And for `O=C(O)Cc1cc(C(=O)Cc2ccccc2Cl)ccc1O` ? 230 °C

And for `OCCCCOc1cccc(/C=C/c2nc3ccccc3s2)c1` ? 88 to 90 °C

And for `CCCCCCOc1ccc(C(=O)Nc2ccc(C(=O)O)cc2)cc1C12CC3CC(CC(C3)C1)C2` ? 256 to 257 °C

Data origin, for the record: a melting point compilation (Tetko et al.; mined from patent text by program, amines drawn as free bases though some values may be those of a salt)
